- assay: Differential scanning calorimetry (VP-DSC) of DSPC liposomes (MLVs) with drugs
- Format: physicochemical
- Parameters: unit not given here
- stated.conditions: pH 7.0; calorimetric phase transition enthalpy; drug-to-lipid 1:5
experimental.readout: ΔHcal
I only need the number, thanks.

Use these answered entries as a reference point.
CC[C@@]1(O)C(=O)OCc2c1cc1n(c2=O)Cc2c-1nc1ccccc1c2CCNC(C)C [CKD602]    11.2
CC[C@]1(O)C[C@H]2CN(CCc3c([nH]c4ccccc34)[C@@](C(=O)OC)(c3cc4c(cc3OC)N(C=O)[C@H]3[C@@](O)(C(=O)OC)[C@H](OC(C)=O)[C@]5(CC)C=CCN6CC[C@]43[C@@H]65)C2)C1 [vincristine]    11.65
CC(=O)O[C@H]1C(=O)[C@@]2(C)[C@H]([C@H](OC(=O)c3ccccc3)[C@]3(O)C[C@H](OC(=O)[C@H](O)[C@@H](NC(=O)c4ccccc4)c4ccccc4)C(C)=C1C3(C)C)[C@]1(OC(C)=O)CO[C@@H]1C[C@@H]2O [paclitaxel]    9.94

Which ΔHcal is listed for COc1cccc2c1C(=O)c1c(O)c3c(c(O)c1C2=O)C[C@@](O)(C(=O)CO)C[C@@H]3O[C@H]1C[C@H](N)[C@H](O)[C@H](C)O1 [doxorubicin] ?
9.66

* * *

- assay: Differential scanning calorimetry (VP-DSC) of DSPC liposomes (MLVs) with drugs
- Type: physicochemical
- stated.conditions: pH 3.6; transition peak width at half-height; drug-to-lipid 1:5
experimental.readout: ΔTm½ (°C)
Quick reminder: number only, in °C, skip the unit.

Use these answered entries as a reference point.
CC[C@]1(O)C[C@H]2CN(CCc3c([nH]c4ccccc34)[C@@](C(=O)OC)(c3cc4c(cc3OC)N(C=O)[C@H]3[C@@](O)(C(=O)OC)[C@H](OC(C)=O)[C@]5(CC)C=CCN6CC[C@]43[C@@H]65)C2)C1 [vincristine]    1.42
CC[C@@]1(O)C(=O)OCc2c1cc1n(c2=O)Cc2c-1nc1ccccc1c2CCNC(C)C [CKD602]    1.27
COc1cccc2c1C(=O)c1c(O)c3c(c(O)c1C2=O)C[C@@](O)(C(=O)CO)C[C@@H]3O[C@H]1C[C@H](N)[C@H](O)[C@H](C)O1 [doxorubicin]    0.94

Consider now this further molecule.
Which ΔTm½ is listed for CC(=O)O[C@H]1C(=O)[C@@]2(C)[C@H]([C@H](OC(=O)c3ccccc3)[C@]3(O)C[C@H](OC(=O)[C@H](O)[C@@H](NC(=O)c4ccccc4)c4ccccc4)C(C)=C1C3(C)C)[C@]1(OC(C)=O)CO[C@@H]1C[C@@H]2O [paclitaxel] ?
2.27

* * *

- assay: Differential scanning calorimetry (VP-DSC) of DSPC liposomes (MLVs) with drugs
- Format: physicochemical
- stated.conditions: pH 3.6; cooperativity unit = ΔHvH/ΔHcal
Listed molecules paired with reported CU
I only need the number, thanks.

Use these answered entries as a reference point.
COc1cccc2c1C(=O)c1c(O)c3c(c(O)c1C2=O)C[C@@](O)(C(=O)CO)C[C@@H]3O[C@H]1C[C@H](N)[C@H](O)[C@H](C)O1 [doxorubicin]    73.3
CC(=O)O[C@H]1C(=O)[C@@]2(C)[C@H]([C@H](OC(=O)c3ccccc3)[C@]3(O)C[C@H](OC(=O)[C@H](O)[C@@H](NC(=O)c4ccccc4)c4ccccc4)C(C)=C1C3(C)C)[C@]1(OC(C)=O)CO[C@@H]1C[C@@H]2O [paclitaxel]    26.6
O=C(O)c1cn(C2CC2)c2cc(N3CCNCC3)c(F)cc2c1=O [ciprofloxacin]    38.6
CC[C@@]1(O)C(=O)OCc2c1cc1n(c2=O)Cc2c-1nc1ccccc1c2CCNC(C)C [CKD602]    45.9

Which CU is listed for CC[C@]1(O)C[C@H]2CN(CCc3c([nH]c4ccccc34)[C@@](C(=O)OC)(c3cc4c(cc3OC)N(C=O)[C@H]3[C@@](O)(C(=O)OC)[C@H](OC(C)=O)[C@]5(CC)C=CCN6CC[C@]43[C@@H]65)C2)C1 [vincristine] ?
37.2
